Biological target: CaHof1
Assay: SPOT peptide array binding signal intensity (averaged, normalized) (arbitrary units (background-subtracted, floor 0; scale differs between SH3 domains)); higher = stronger binding of the SH3 domain to the peptide
Assign fulfilled whenever SPOT peptide array binding signal intensity does not fall below 10; assign not fulfilled whenever it does.

>>> print(df.to_string())
            binder          label
0  NRLRKRLNLPSEISI  not fulfilled
1  LLLLFVPDSPYDPAI      fulfilled
2  MARRRLPDRPPNGIG  not fulfilled
3  VQPTAAPATPPRHIS  not fulfilled
4  EVTPKVPERPSRRKT  not fulfilled
5  LKRITSPPLPPRADS  not fulfilled
